Data credit: patent US20060193821

Measurement target: IL-23 (human, p19/p40 heterodimer) (Homo sapiens, UniProt Q9NPF7;P29460 SEQ:20-189,SEQ:23-328)
Sequence (Q9NPF7 20-189, chain 1 of 2): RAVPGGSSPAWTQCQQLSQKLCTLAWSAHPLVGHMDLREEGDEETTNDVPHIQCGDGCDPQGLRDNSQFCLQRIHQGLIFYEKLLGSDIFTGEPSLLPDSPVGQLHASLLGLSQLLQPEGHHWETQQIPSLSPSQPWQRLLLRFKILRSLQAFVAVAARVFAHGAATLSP
Sequence (P29460 23-328, chain 2 of 2): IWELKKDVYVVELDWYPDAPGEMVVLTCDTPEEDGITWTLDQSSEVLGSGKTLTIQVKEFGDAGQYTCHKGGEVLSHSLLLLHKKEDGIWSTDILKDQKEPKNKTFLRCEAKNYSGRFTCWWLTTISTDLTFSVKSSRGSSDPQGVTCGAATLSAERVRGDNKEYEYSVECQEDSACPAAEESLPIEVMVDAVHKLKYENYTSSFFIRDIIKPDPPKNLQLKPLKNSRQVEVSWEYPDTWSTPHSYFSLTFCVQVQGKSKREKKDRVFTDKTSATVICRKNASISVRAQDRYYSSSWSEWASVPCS
Method summary: filter; DPBS Ca Mg
Experimental parameters: tags: R&D Systems, carrier free
Protocol: The dot blot binding assay previously described was used to characterize the relative potency of the majority of the aptamers synthesized. For KD determination, chemically synthesized aptamers were purified using denaturing polyacrylamide gel electrophoresis, 5′end labeled with γ-³²P ATP and were tested for direct binding to full human IL-23. […] KD values were calculated by fitting the equation y=(max/(1+K/protein))+yint using KaleidaGraph (KaleidaGraph v. 3.51, Synergy Software). […]
Listed below: pKd values for each entry.
# pKd = -log10(concentration in molar units)

| Binder | pKd |
| --- | --- |
| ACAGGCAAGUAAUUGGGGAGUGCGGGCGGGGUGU (mixed, 2'-OMe C,U and A11; other A,G deoxy; 3'-idT) [ARC1434] | 8.52 |

Ask | Item under review: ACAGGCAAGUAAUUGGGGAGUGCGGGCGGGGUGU (mixed, 2'-OMe C,U and G18; other A,G deoxy; 3'-idT) [ARC1439] . Reported pKd?
Reply | 8.32

Ask | Another binder: GGCAAGUAAUUGGGGAGUGCGGGCGGGG (mixed, deoxy A,G; 2'-OMe C,U; six PS; 3'-idT [2'-OMe C,U at 3,7,10,11,18,20,24; deoxy A,G elsewhere; PS 8-9,16-17,17-18,18-19,19-20,23-24 (N = PS linkage, left out); 3'-inverted dT at 29]) [ARC1470]
Reply | 8.07

Ask | Another binder: GGCAAGUAAUUGGGGAGUGCGGGCGGGG (mixed, 2'-OMe C,U and three purines (A7,A8,G15 of ARC979); six PS; 3'-idT [2'-OMe C,U at 3,7,10,11,18,20,24; 2'-OMe purines A4,A5,G12; deoxy A,G elsewhere; PS 8-9,16-17,17-18,18-19,19-20,23-24 (N = PS linkage, left out); 3'-inverted dT at 29]) [ARC1471]
Reply | 7.63

Ask | Another binder: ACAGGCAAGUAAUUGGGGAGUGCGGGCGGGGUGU (mixed, 2'-OMe C,U and G5; other A,G deoxy; 3'-idT) [ARC1430]
Reply | 7.85

Ask | Another binder: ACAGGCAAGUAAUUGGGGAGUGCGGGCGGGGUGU (mixed, 2'-OMe C,U and G26,G28,G29; other A,G deoxy; 3'-idT) [ARC1542]
Reply | 8.92
